Kindly supply the reported cytotoxicity at 10 µM values for the records listed here.
METHOD: Toxicity liver stage against HepG2, at 10uM
Type: cell-based
Parameters: test concentration 10 uM, cell line HepG2-A16-CD81EGFP
STATED_CONDITIONS: human, HepG2-A16-CD81EGFP cells; read-out: INHIBITION
Numbers only; they are read as %.

### Prompt Report measured cytotoxicity at 10 µM; entry is O=C(CCSc1ccc(F)cc1)NS(=O)(=O)c1ccc2c(c1)OCCO2
### Response 2.36

### Prompt Report measured cytotoxicity at 10 µM; entry is Cc1cc(NC(=O)NCc2ccccn2)n(C)n1
### Response 2.14

### Prompt Report measured cytotoxicity at 10 µM; entry is O=C1O[C@@H]2CN(Cc3cccc(F)c3)C[C@@H]2N1CCCN1CCOCC1
### Response -9.9

###

METHOD: Toxicity liver stage against HepG2, at 10uM
Format: cell-based
Parameters: test concentration 10 uM, cell line HepG2-A16-CD81EGFP
STATED_CONDITIONS: human, HepG2-A16-CD81EGFP cells; read-out: INHIBITION
Kindly supply the reported cytotoxicity at 10 µM values for the records listed here.
Numbers only; they are read as %.

### Prompt Report measured cytotoxicity at 10 µM; entry is COc1cc(CNC(C)Cn2ccnc2)cc2c1OCO2 (stereo not drawn)
### Response 2.67

### Prompt Report measured cytotoxicity at 10 µM; entry is CC(=O)N1CCOC(CCc2cc(-c3c(C)noc3C)ncn2)C1 (stereo not drawn)
### Response -1.98

### Prompt Report measured cytotoxicity at 10 µM; entry is Cc1ncc(CNC(=O)CCc2c(C)noc2C)c(C2CCCN2C)n1 (stereo not drawn)
### Response -8.86

### Prompt Report measured cytotoxicity at 10 µM; entry is N#Cc1cc(F)ccc1CN1CCCC1Cn1cccn1 (stereo not drawn)
### Response 2.01

### Prompt Report measured cytotoxicity at 10 µM; entry is Cn1nc(C(=O)N2CCCC(n3cncn3)C2)ccc1=O (stereo not drawn)
### Response -17.4

### Prompt Report measured cytotoxicity at 10 µM; entry is CC(=O)N1CCCC(C(=O)NCCc2nc(Cc3ccccc3)no2)C1 (stereo not drawn)
### Response 3.81

### Prompt Report measured cytotoxicity at 10 µM; entry is CC(=O)NCCNC(=O)c1sc(-c2ccc(Cl)cc2)nc1C
### Response -7.6

### Prompt Report measured cytotoxicity at 10 µM; entry is CS(=O)(=O)CC1(CNc2ccc(C#N)c(C(F)(F)F)c2)CC1
### Response 9.95

### Prompt Report measured cytotoxicity at 10 µM; entry is C[C@H](CCO)NS(=O)(=O)c1ccc(Br)cn1
### Response -8.63

### Prompt Report measured cytotoxicity at 10 µM; entry is CC(Nc1ccn(CCS(C)(=O)=O)n1)c1ccc(C#N)cc1 (stereo not drawn)
### Response 8.64

### Prompt Report measured cytotoxicity at 10 µM; entry is CC(C(=O)O)n1nc(C(F)(F)F)c(Br)c1C1CC1 (stereo not drawn)
### Response 10.3

### Prompt Report measured cytotoxicity at 10 µM; entry is CC(C)Oc1cccc(CC(=O)N(CC(N)=O)C2CCCC2)c1
### Response -2.09

### Prompt Report measured cytotoxicity at 10 µM; entry is Cc1ccc(S(=O)(=O)N2CCC(O)(CN(C)C)C2)cc1 (stereo not drawn)
### Response -7.02

### Prompt Report measured cytotoxicity at 10 µM; entry is CN(C)Cc1cc(=O)n2c(n1)CN(S(=O)(=O)C1CC1)CCC2
### Response 4.53

### Prompt Report measured cytotoxicity at 10 µM; entry is Cc1cccc(SC2CCN(C(=O)CCNS(C)(=O)=O)CC2)c1
### Response 1.2

### Prompt Report measured cytotoxicity at 10 µM; entry is CN(Cc1ccco1)C(=O)[C@@]12CNC[C@@H]1CN(C1CCCC1)C2
### Response 3.75

### Prompt Report measured cytotoxicity at 10 µM; entry is Cn1nc(CNC(=O)C2CCCCC2)cc1C1CC1
### Response -4.56

### Prompt Report measured cytotoxicity at 10 µM; entry is Cc1ccccc1C(NC(=O)NCC1(O)CCC1)C1CC1 (stereo not drawn)
### Response -3.03

### Prompt Report measured cytotoxicity at 10 µM; entry is Cc1cccc(C(=O)NCc2ccccc2)n1
### Response -4.83

### Prompt Report measured cytotoxicity at 10 µM; entry is CC1(C)CN(c2cc(C3CC3)ncn2)C[C@]1(C)O
### Response 1.4

### Prompt Report measured cytotoxicity at 10 µM; entry is CCN(Cc1ccc(S(C)(=O)=O)cc1)Cc1nc(COC)no1
### Response -10.8

### Prompt Report measured cytotoxicity at 10 µM; entry is Cc1c(CN2CCCCC2)c(O)n(CCCO)c(=O)c1C#N
### Response -5.03

### Prompt Report measured cytotoxicity at 10 µM; entry is CCOC(=O)[C@]12CCCN(Cc3nccs3)C[C@H]1CN(CCN(C)C)C2
### Response -9.82

### Prompt Report measured cytotoxicity at 10 µM; entry is Cc1cc(C)nc(N2CC[C@H](Oc3ccccc3F)[C@@H](O)CC2)n1
### Response 3.72

### Prompt Report measured cytotoxicity at 10 µM; entry is Cc1nccn1CC1CCCN1S(=O)(=O)Cc1cccc(F)c1 (stereo not drawn)
### Response -15.8

### Prompt Report measured cytotoxicity at 10 µM; entry is CCc1c(C)[nH]c2cc(C3CCN(Cc4ccncc4C)C3)nn2c1=O (stereo not drawn)
### Response -14.1

### Prompt Report measured cytotoxicity at 10 µM; entry is O=C(NCCCc1ccco1)c1cnc(N2CCOCC2)nc1
### Response 11

### Prompt Report measured cytotoxicity at 10 µM; entry is N#Cc1ccc(C(=O)O)nc1C=Cc1cccc(F)c1
### Response 8

### Prompt Report measured cytotoxicity at 10 µM; entry is CCc1ccc(O)c(C(=O)NC2CCN(C(=O)OC)CC2)c1
### Response 1.89

### Prompt Report measured cytotoxicity at 10 µM; entry is CSC(C)C(=O)N1CCN(CCO)CC1 (stereo not drawn)
### Response -6.69

### Prompt Report measured cytotoxicity at 10 µM; entry is CC(c1nc(C2CC2)no1)N1CCN(CCn2ccccc2=O)CC1 (stereo not drawn)
### Response 25.8

### Prompt Report measured cytotoxicity at 10 µM; entry is COc1ncccc1C(=O)N1CC[C@H]2C[C@H](c3nnc(C)[nH]3)O[C@@H]2C1
### Response 2.4

### Prompt Report measured cytotoxicity at 10 µM; entry is CC(C)CS(=O)(=O)N1C[C@@H]2C[C@H](C(=O)Nc3cccnc3)[C@H](C1)O2
### Response -1.55

### Prompt Report measured cytotoxicity at 10 µM; entry is CN(C)c1ncccc1CNC(=O)NCc1ccco1
### Response -3.26

### Prompt Report measured cytotoxicity at 10 µM; entry is CNC(=O)c1cn[nH]c1C1(C)CCCN(Cc2ccccn2)C1 (stereo not drawn)
### Response -10.5

### Prompt Report measured cytotoxicity at 10 µM; entry is CCC[C@@H](NC(N)=O)C(=O)N1CCc2ccccc2CC1
### Response 7.79

### Prompt Report measured cytotoxicity at 10 µM; entry is O=C(CCOc1ccccc1F)N1CCCCC1Cn1cccn1 (stereo not drawn)
### Response -4.47

### Prompt Report measured cytotoxicity at 10 µM; entry is Cc1ccc(C)c(C(NC(=O)C2CC2)c2cccnc2)c1 (stereo not drawn)
### Response -3.5
